Cited source: ChEMBL document CHEMBL4382215

Reported IC50 values for the following compounds.
System: RAW264.7
test: Antiinflammatory activity in mouse RAW264.7 cells assessed as inhibition of LPS-induced nitric oxide production preincubated for 3 hrs followed by LPS addition and measured after 24 hrs by griess assay
Assay type: functional, cell-based
Give the value, in units of µM, as a plain number.

See these solved cases before continuing.
compound: C=C1CCC2[C@](C)(CO)[C@H](O)CC[C@@]2(C)[C@@H]1CCOC(=O)c1ccc([N+](=O)[O-])cc1 (some centres undefined)
target_entity: RAW264.7
endpoint_result: 37.3
//
compound: C=C1CCC2[C@](C)(CO)[C@H](O)CC[C@@]2(C)[C@@H]1CCOc1ccccc1O (some centres undefined)
target_entity: RAW264.7
endpoint_result: 47.7
//
compound: C=C1CCC2[C@](C)(CO)[C@H](O)CC[C@@]2(C)[C@@H]1CCOc1ccc(C(C)(C)C)cc1 (some centres undefined)
target_entity: RAW264.7
endpoint_result: 35.8

If you can, please state the reported IC50 value of C=C1CCC2[C@](C)(CO)[C@H](O)CC[C@@]2(C)[C@@H]1CCOc1ccc(Br)cc1 (some centres undefined) .
40.2

If you can, please state the reported IC50 value of C=C1CC[C@@H]2[C@](C)(CO)[C@H](O)CC[C@@]2(C)[C@@H]1C/C=C1/C(=O)OC[C@H]1O [ANDROGRAPHOLIDE] .
8.81

If you can, please state the reported IC50 value of C=C1CCC2[C@](C)(CO)[C@H](O)CC[C@@]2(C)[C@@H]1CCOc1ccc(Oc2ccccc2)cc1 (some centres undefined) .
12.8

If you can, please state the reported IC50 value of C=C1CCC2[C@](C)(CO)[C@H](O)CC[C@@]2(C)[C@@H]1CCOC(=O)c1ccccc1[N+](=O)[O-] (some centres undefined) .
35.2

If you can, please state the reported IC50 value of C=C1CCC2[C@](C)(CO)[C@H](O)CC[C@@]2(C)[C@@H]1CCOc1ccc([N+](=O)[O-])cc1 (some centres undefined) .
3.38

If you can, please state the reported IC50 value of C=C1CCC2[C@](C)(CO)[C@H](O)CC[C@@]2(C)[C@@H]1CCOc1cccc2ccccc12 (some centres undefined) .
44.7

* * *

Tested on: RAW264.7
test: Antiinflammatory activity in mouse RAW264.7 cells assessed as inhibition of LPS-induced nitric oxide production preincubated for 3 hrs followed by LPS addition and measured after 24 hrs by griess assay
Format: functional, cell-based
pIC50: −log10 of the molar value.
observation_type: pIC50

See these solved cases before continuing.
compound: C=C1CCC2[C@](C)(CO)[C@H](O)CC[C@@]2(C)[C@@H]1CCn1cnc2c(N)ncnc21 (stereo not given in full)
target_entity: RAW264.7
endpoint_result: < 4.00

compound: C=C1CCC2[C@](C)(CO)[C@H](O)CC[C@@]2(C)[C@@H]1CCn1ccc(=O)[nH]c1=O (stereo not given in full)
target_entity: RAW264.7
endpoint_result: < 4.00

compound: C=C1CCC2[C@](C)(CO)[C@H](O)CC[C@@]2(C)[C@@H]1CCOc1ccc2ccc(=O)oc2c1 (stereo not given in full)
target_entity: RAW264.7
endpoint_result: < 4.30

compound: C=C1CCC2[C@](C)(CO)[C@H](O)CC[C@@]2(C)[C@@H]1CCOc1ccc2oc(-c3ccccc3)cc(=O)c2c1 (stereo not given in full)
target_entity: RAW264.7
endpoint_result: < 4.00

compound: C=C1CCC2[C@](C)(CO)[C@H](O)CC[C@@]2(C)[C@@H]1CCn1cncn1 (stereo not given in full)
target_entity: RAW264.7
endpoint_result: < 4.00

If you can, please state the reported pIC50 value of C=C1CCC2[C@](C)(CO)[C@H](O)CC[C@@]2(C)[C@@H]1CCn1ccnc1 (stereo not given in full) .
< 4.30

If you can, please state the reported pIC50 value of C=C1CCC2[C@](C)(CO)[C@H](O)CC[C@@]2(C)[C@@H]1CCn1c(N)nccc1=O (stereo not given in full) .
< 4.00

If you can, please state the reported pIC50 value of C=C1CCC2[C@](C)(CO)[C@H](O)CC[C@@]2(C)[C@@H]1CCOC(=O)c1cccnc1 (stereo not given in full) .
< 4.30

If you can, please state the reported pIC50 value of C=C1CCC2[C@](C)(CO)[C@H](O)CC[C@@]2(C)[C@@H]1CCOc1ccc(-c2cc(=O)c3cc(C)ccc3o2)cc1 (stereo not given in full) .
< 4.00

If you can, please state the reported pIC50 value of C=C1CCC2[C@](C)(CO)[C@H](O)CC[C@@]2(C)[C@@H]1CCOC(=O)c1ccccc1 (stereo not given in full) .
< 4.00
